Assay: Stability of the analytes in spiked plasma, brain, kidney and spleen matrices (autosampler, long-term, freeze-thaw)
Format: physicochemical, mice
Settings: spleen, nominal 30.0 µg/mL, processed samples in autosampler vials 24 h room temperature
ASSAY METRIC: Stability Autosampler RE (%)
Report the value in % with no unit label.

STRUCTURE	QUANTITATIVE RESULT
COc1cc2ccc(=O)oc2cc1OC	-0.99

Looking up "CC(C)=CCOc1ccc2ccc(=O)oc2c1" , I found its Stability Autosampler RE (%) recorded as -2.63

---

Reported Stability Autosampler RE (%) values are given for each entry in this list.
Test: Stability of the analytes in spiked plasma, brain, kidney and spleen matrices (autosampler, long-term, freeze-thaw)
Assay type: physicochemical, mice
Details: spleen, nominal 3.0 µg/mL, processed samples in autosampler vials 24 h room temperature
Report the value in % with no unit label.

Some compounds with recorded Stability Autosampler RE (%):
COMPOUND	UNITS OF MEASURE	Stability Autosampler RE (%)
COc1cc2ccc(=O)oc2cc1OCC=C(C)C [PE, 7-O-prenylscopoletin]	%	-10.42
COc1ccc2ccc(=O)oc2c1 [HR, herniarin]	%	-0.16
CC(C)=CCOc1ccc2ccc(=O)oc2c1 [PU, 7-O-prenylumbelliferone]	%	-4.98

Looking up COc1cc2ccc(=O)oc2cc1OC [SC, scoparone] , I found its Stability Autosampler RE (%) recorded as -6.71

Looking up COc1cc2ccc(=O)oc2c(OC)c1OC [DF, dimethylfraxetin] , I found its Stability Autosampler RE (%) recorded as -1.66

---

Reported Stability Freeze-Thaw RE (%) values are given for each entry in this list.
Assay: Stability of the analytes in spiked plasma, brain, kidney and spleen matrices (autosampler, long-term, freeze-thaw)
Assay type: physicochemical, mice
Details: plasma, nominal 30.0 µg/mL, three cycles (−4 °C to 25 °C)
Report the value in % with no unit label.

MOLECULE	UNITS OF MEASURE	QUANTITATIVE RESULT
COc1cc2ccc(=O)oc2cc1OCC=C(C)C [PE, 7-O-prenylscopoletin]	%	-5.55
COc1cc2ccc(=O)oc2c(OC)c1OC [DF, dimethylfraxetin]	%	0.49
CC(C)=CCOc1ccc2ccc(=O)oc2c1 [PU, 7-O-prenylumbelliferone]	%	-5.10
COc1ccc2ccc(=O)oc2c1 [HR, herniarin]	%	-5.47

Looking up COc1cc2ccc(=O)oc2cc1OC [SC, scoparone] , I found its Stability Freeze-Thaw RE (%) recorded as -0.10

---

Experiment: Stability of the analytes in spiked plasma, brain, kidney and spleen matrices (autosampler, long-term, freeze-thaw)
Format: physicochemical, mice
Details: kidney, nominal 0.3 µg/mL, processed samples in autosampler vials 24 h room temperature
Use 7% as the dividing line for Stability Autosampler RE (%), with the line itself on the condition met side and lower values as condition not met.

STRUCTURE	ASSIGNED CATEGORY
COc1ccc2ccc(=O)oc2c1	condition met

Ask | Check this compound for Stability Autosampler RE (%) at or above 7%: "COc1cc2ccc(=O)oc2c(OC)c1OC"
Reply | condition not met

---

Assay: Stability of the analytes in spiked plasma, brain, kidney and spleen matrices (autosampler, long-term, freeze-thaw)
Format: physicochemical, mice
Details: plasma, nominal 0.3 µg/mL, three cycles (−4 °C to 25 °C)
ASSAY METRIC: Stability Freeze-Thaw RE (%)
Report the value in % with no unit label.

Some compounds with recorded Stability Freeze-Thaw RE (%):
STRUCTURE	QUANTITATIVE RESULT
COc1cc2ccc(=O)oc2cc1OCC=C(C)C	2.80
COc1cc2ccc(=O)oc2cc1OC	-14.02
CC(C)=CCOc1ccc2ccc(=O)oc2c1	-9.54
COc1ccc2ccc(=O)oc2c1	0.67

Looking up "COc1cc2ccc(=O)oc2c(OC)c1OC" , I found its Stability Freeze-Thaw RE (%) recorded as -12.33

---

Assay: Stability of the analytes in spiked plasma, brain, kidney and spleen matrices (autosampler, long-term, freeze-thaw)
Assay type: physicochemical, mice
Conditions: spleen, nominal 30.0 µg/mL, processed samples in autosampler vials 24 h room temperature
Reported Stability Autosampler RE (%) values are given for each entry in this list.
Report the value in % with no unit label.

Some molecules with recorded Stability Autosampler RE (%):
MOLECULE	UNITS OF MEASURE	Stability Autosampler RE (%)
COc1cc2ccc(=O)oc2cc1OCC=C(C)C [PE, 7-O-prenylscopoletin]	%	-1.02
COc1ccc2ccc(=O)oc2c1 [HR, herniarin]	%	1.18

We now examine a further molecule.
Looking up COc1cc2ccc(=O)oc2c(OC)c1OC [DF, dimethylfraxetin] , I found its Stability Autosampler RE (%) recorded as 1.50

---

Reported Stability Autosampler RE (%) values are given for each entry in this list.
Test: Stability of the analytes in spiked plasma, brain, kidney and spleen matrices (autosampler, long-term, freeze-thaw)
Format: physicochemical, mice
Conditions: kidney, nominal 0.3 µg/mL, processed samples in autosampler vials 24 h room temperature
Report the value in % with no unit label.

Some molecules with recorded Stability Autosampler RE (%):
MOLECULE	ASSAY METRIC	QUANTITATIVE RESULT
COc1cc2ccc(=O)oc2cc1OC [SC, scoparone]	Stability Autosampler RE (%)	7.01
CC(C)=CCOc1ccc2ccc(=O)oc2c1 [PU, 7-O-prenylumbelliferone]	Stability Autosampler RE (%)	7.10

We now examine a further molecule.
Looking up COc1cc2ccc(=O)oc2cc1OCC=C(C)C [PE, 7-O-prenylscopoletin] , I found its Stability Autosampler RE (%) recorded as 7.06
